The origin of these recorded values is patent US10472353B2.

# PROTOCOL_TEXT: Pharmacokinetics after single oral dose, powder in capsule, plasma levels of compound (I) by LC/MS
# Assay type: in vivo, female Sprague-Dawley rats
# CONDITION_LABEL: female, Sprague-Dawley, rat, plasma, po, 5 mg/kg, Sprague-Dawley rats, read-out: Cmax
Structures can show the parent of a compound that is named as a salt.
READOUT_TYPE: Cmax

COMPOUND: COc1ccc2c(c1)[C@]1(C[C@H]1c1ccc3c(/C=C/c4ccc(CN5C[C@@H](C)O[C@@H](C)C5)cc4)n[nH]c3c1)C(=O)N2 [HCl]
MEASURED: 250 ng/mL

###

# PROTOCOL_TEXT: Pharmacokinetics after single oral dose, powder in capsule, plasma levels of compound (I) by LC/MS
# Type: in vivo, female Sprague-Dawley rats
# CONDITION_LABEL: female, Sprague-Dawley, rat, plasma, po, 5 mg/kg, Sprague-Dawley rats, read-out: AUC0-tlast
Structures can show the parent of a compound that is named as a salt.

MOLECULE: COc1ccc2c(c1)[C@]1(C[C@H]1c1ccc3c(/C=C/c4ccc(CN5C[C@@H](C)O[C@@H](C)C5)cc4)n[nH]c3c1)C(=O)N2 [HCl]
AUC(0-t): 2400 ng·h/mL
